# Lookup of reported IC50 keyed by entry
Target: recombinant human Lp-PLA2 (Homo sapiens)
Assay: Recombinant human Lp-PLA2 assay (rhLp-PLA2, PED6 assay)
Type: biochemical
Conditions: lower bounds; read-out: pIC50 values in the PED6 assay (converted)
PROPERTY_NAME: IC50

- C[C@@H]1Cn2c(cc(OCc3ccc(Oc4ccc(C(F)(F)F)nc4)c(F)c3)nc2=O)N1C: ≤ 1 nM
- C[C@H]1Cn2c(cc(OCc3cc(F)c(Oc4ccnc(C(F)(F)F)c4)c(F)c3)nc2=O)N1C: ≤ 1 nM
- CN1c2cc(OCc3ccc(Oc4cncc(C(F)(F)F)c4)c(F)c3)nc(=O)n2CC1(C)C: ≤ 1 nM
- CC1(C)Cn2c(cc(OCc3cc(F)c(Oc4ccnc(C(F)(F)F)c4)c(F)c3)nc2=O)N1: ≤ 1 nM
- C[C@H]1Cn2c(cc(OCc3ccc(Oc4cccc(F)c4)c(F)c3)nc2=O)N1C: ≤ 10 nM
- CC1(C)Cn2c(cc(OCc3cc(F)c(Oc4cncc(Cl)c4)c(F)c3)nc2=O)N1: ≤ 1 nM
- CC1Cn2c(cc(OCc3ccc(F)c(C#N)c3)nc2=O)N1C (centres unmarked): ≤ 10 nM
- [2H]C([2H])(Oc1cc2n(c(=O)n1)CC(C)(C)N2CC)c1cccc(F)c1F: ≤ 10 nM

###

# Lookup of reported IC50 keyed by entry
Target: recombinant human Lp-PLA2 (Homo sapiens)
Sequence (Q13093 22-441): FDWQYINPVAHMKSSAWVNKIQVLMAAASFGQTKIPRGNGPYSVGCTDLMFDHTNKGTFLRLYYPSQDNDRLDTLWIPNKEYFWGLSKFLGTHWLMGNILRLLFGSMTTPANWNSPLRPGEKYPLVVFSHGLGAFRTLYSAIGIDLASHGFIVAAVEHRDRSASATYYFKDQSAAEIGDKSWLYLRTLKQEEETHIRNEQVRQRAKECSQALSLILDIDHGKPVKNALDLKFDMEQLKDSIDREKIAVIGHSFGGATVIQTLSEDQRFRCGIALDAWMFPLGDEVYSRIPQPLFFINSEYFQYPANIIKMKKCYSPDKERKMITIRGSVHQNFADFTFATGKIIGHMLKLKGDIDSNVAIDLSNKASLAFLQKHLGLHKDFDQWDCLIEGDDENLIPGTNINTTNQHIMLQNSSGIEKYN
Experiment: Recombinant human Lp-PLA2 assay (rhLp-PLA2, PED6 assay)
Format: biochemical
Settings: lower bounds; read-out: pIC50 values in the PED6 assay (converted)
PROPERTY_NAME: IC50

* CC1(C)Cn2c(cc(OCc3ccc(Oc4ccc(Cl)nc4)c(F)c3)nc2=O)N1 | ≤ 1 nM
* C[C@@H]1Cn2c(cc(OCc3ccc(Oc4ccnc(C(F)(F)F)c4)c(F)c3)nc2=O)N1C | ≤ 1 nM
* [2H]C1([2H])n2c(cc(OCc3cc(F)cc(F)c3)nc2=O)N(C)C1(C)C | ≤ 10 nM
* CN1c2cc(OCc3cc(F)c(Oc4ccc(Cl)nc4)c(F)c3)nc(=O)n2CC1(C)C | ≤ 1 nM
* CN1c2cc(OCc3cc(F)c(Oc4cncc(Cl)c4)c(F)c3)nc(=O)n2CC1(C)C | ≤ 1 nM
* C[C@@H]1Cn2c(cc(OCc3ccc(F)c(F)c3)nc2=O)N1C | ≤ 10 nM
* CC1(C)Cn2c(cc(OCc3cc(F)c(F)c(F)c3)nc2=O)N1 | ≤ 1 nM
* C[C@H]1Cn2c(cc(OCc3ccc(Oc4ccnc(C(F)(F)F)c4)c(F)c3)nc2=O)N1C | ≤ 1 nM
* C[C@H]1Cn2c(cc(OCc3ccc(Oc4cncc(C(F)(F)F)c4)c(F)c3)nc2=O)N1C | ≤ 1 nM
* CN1c2cc(OCc3ccc(Oc4ccnc(C(F)(F)F)c4)c(F)c3)nc(=O)n2CC1(C)C | ≤ 1 nM
* C[C@H]1Cn2c(cc(OCc3cc(F)c(Oc4ccnc(C(F)(F)F)c4)c(F)c3)nc2=O)N1 | ≤ 1 nM
* C[C@H]1Cn2c(cc(OCc3cc(F)c(F)c(F)c3)nc2=O)N1 | ≤ 10 nM
* CC1Cn2c(cc(OCc3ccc(Oc4cc(F)cc(C(F)(F)F)c4)c(C#N)c3)nc2=O)N1C (stereo not drawn) [Example E1] | ≤ 1 nM
* C[C@H]1Cn2c(cc(OCc3ccc(Oc4ccc(C(F)(F)F)nc4)c(F)c3)nc2=O)N1C | ≤ 1 nM
* CN1c2cc(OCc3cc(F)c(Oc4ccnc(C(F)(F)F)c4)c(F)c3)nc(=O)n2CC1(C)C | ≤ 1 nM
* CN1c2cc(OCc3cc(F)c(Oc4cnc(C(F)(F)F)nc4)c(F)c3)nc(=O)n2CC1(C)C | ≤ 1 nM
* CC1Cn2c(cc(OCc3ccc(Oc4ccc(C#N)c(C(F)(F)F)c4)c(F)c3)nc2=O)N1C (stereo not drawn) | ≤ 1 nM
* C[C@H]1Cn2c(cc(OCc3ccc(Oc4cncc(C#N)c4)c(F)c3)nc2=O)N1C | ≤ 10 nM
* CCN1c2cc(OCc3cccc(F)c3F)nc(=O)n2CC1(C)C | ≤ 10 nM
* C[C@H]1Cn2c(cc(OCc3cc(F)c(Oc4cncc(C(F)(F)F)c4)c(F)c3)nc2=O)N1C | ≤ 1 nM
* CC1(C)Cn2c(cc(OCc3cc(F)c(Oc4cnc(C(F)(F)F)nc4)c(F)c3)nc2=O)N1 | ≤ 1 nM
* C[C@@H]1Cn2c(cc(OCc3cc(F)c(F)c(F)c3)nc2=O)N1C | ≤ 10 nM
* CC1(C)Cn2c(cc(OCc3cc(F)c(Oc4ccnc(F)c4)c(F)c3)nc2=O)N1 | ≤ 1 nM
* CC1(C)Cn2c(cc(OCc3cc(F)c(Oc4ccnc(Cl)c4)c(F)c3)nc2=O)N1 | ≤ 1 nM
* C[C@H]1Cn2c(cc(OCc3ccc(Oc4cncc(Cl)c4)c(F)c3)nc2=O)N1C | ≤ 1 nM
* CC1(C)Cn2c(cc(OCc3ccc(Oc4cncc(C(F)(F)F)c4)c(F)c3)nc2=O)N1 | ≤ 1 nM
* C[C@H]1Cn2c(cc(OCc3cc(F)c(F)c(F)c3)nc2=O)N1C | ≤ 10 nM
* CN1c2cc(OCc3ccc(Oc4cncc(Cl)c4)c(F)c3)nc(=O)n2CC1(C)C | ≤ 1 nM
* CN1c2cc(OCc3ccc(F)c(Cl)c3)nc(=O)n2CC1(C)C | ≤ 1 nM
* [2H]C([2H])(Oc1cc2n(c(=O)n1)CC(C)(C)N2C)c1cccc(F)c1F | ≤ 10 nM
* CN1c2cc(OCc3cccc(Cl)c3)nc(=O)n2CC1(C)C | ≤ 10 nM
* CC1Cn2c(cc(OCc3ccc(Oc4cccc(C(F)(F)F)c4)c(C#N)c3)nc2=O)N1C (stereo not drawn) | ≤ 1 nM
* CN1c2cc(OCc3ccc(F)c(F)c3)nc(=O)n2CC1(C)C | ≤ 1 nM
